Value source: BigSolDB 2.1

setupConditions: in isopropanol, 293.15 K
observable: solubility (mole fraction)

Q: State the recorded solubility (mole fraction) for this entry: "Nc1ccc(S(=O)(=O)Nc2ccc(Cl)nn2)cc1"
Ans: 0.00382

* * *

setupConditions: in 1,4-dioxane, 318.15 K
observable: solubility (mole fraction)
Give the value as a plain number.

Q: State the recorded solubility (mole fraction) for this entry: "Nc1ccc(S(=O)(=O)Nc2ccc(Cl)nn2)cc1"
Ans: 0.204

* * *

setupConditions: in water, 288.15 K
observable: solubility (mole fraction)
Give the value as a plain number.

Q: State the recorded solubility (mole fraction) for this entry: "Nc1ccc(S(=O)(=O)Nc2ccc(Cl)nn2)cc1"
Ans: 3.31e-05
